Values were extracted from ChEMBL document CHEMBL2034870.

- Assay System: Peroxisome proliferator-activated receptor delta (Homo sapiens, UniProt Q03181)
- Sequence (Q03181 whole entry): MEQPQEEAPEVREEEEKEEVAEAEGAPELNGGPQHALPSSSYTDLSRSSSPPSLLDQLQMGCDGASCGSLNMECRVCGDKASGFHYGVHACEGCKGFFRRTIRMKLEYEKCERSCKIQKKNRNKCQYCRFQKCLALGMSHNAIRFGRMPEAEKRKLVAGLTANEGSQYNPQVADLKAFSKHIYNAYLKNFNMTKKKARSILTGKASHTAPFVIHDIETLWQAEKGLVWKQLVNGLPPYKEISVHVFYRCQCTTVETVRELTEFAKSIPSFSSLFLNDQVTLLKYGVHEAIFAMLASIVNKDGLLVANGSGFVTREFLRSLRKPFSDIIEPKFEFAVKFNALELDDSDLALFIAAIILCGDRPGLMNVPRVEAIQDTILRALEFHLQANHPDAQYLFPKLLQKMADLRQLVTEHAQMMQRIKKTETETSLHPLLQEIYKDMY
- Type: functional
- Test Settings: read-out: pIC50 (converted)
IC50 values by entry
Assay Endpoint: IC50 (nM)

[[record]]
chemical_string = "CCCn1c(CCCc2ccc(OC(C)(C)C(=O)O)cc2)nn([C@H](C)c2ccccc2)c1=O"
assay_system = "Peroxisome proliferator-activated receptor delta (Homo sapiens, UniProt Q03181)"
value_reported = 1500

[[record]]
chemical_string = "Cc1oc(-c2ccc(C(F)(F)F)cc2)nc1Cn1ccc2cc(C[C@@H](OC(C)C)C(=O)O)ccc21"
assay_system = "Peroxisome proliferator-activated receptor delta (Homo sapiens, UniProt Q03181)"
value_reported = 891

[[record]]
chemical_string = "CCCc1cc(-c2ccccc2)ccc1OCCCOc1cccc([C@@H]2OC(=O)NC2=O)c1"
assay_system = "Peroxisome proliferator-activated receptor delta (Homo sapiens, UniProt Q03181)"
value_reported = 1510

[[record]]
chemical_string = "CCO[C@H](Cc1ccc2c(c1)cc(C)n2Cc1nc(-c2ccc(C(F)(F)F)cc2)oc1C)C(=O)O"
assay_system = "Peroxisome proliferator-activated receptor delta (Homo sapiens, UniProt Q03181)"
value_reported = 372

[[record]]
chemical_string = "CCCc1cc(-c2noc3ccccc23)ccc1OCCCOc1cccc([C@@H]2SC(=O)NC2=O)c1"
assay_system = "Peroxisome proliferator-activated receptor delta (Homo sapiens, UniProt Q03181)"
value_reported = 140


###

Listed next: entries and their corresponding pIC50.
- Assay System: Peroxisome proliferator-activated receptor alpha (Homo sapiens)
- Type: functional
- Test Settings: read-out: IC50
pIC50: −log10 of the molar value.
Assay Endpoint: pIC50

[[record]]
chemical_string = "O=C(O)[C@@H]1CCc2ccc(OCCCOc3ccc(OCC(F)(F)F)cc3Cl)cc2O1"
assay_endpoint = "pIC50"
value_reported = 6.09

[[record]]
chemical_string = "Cc1oc(-c2ccccc2)nc1CCOc1ccc(C[C@H](Oc2ccccc2)C(=O)O)cc1"
assay_endpoint = "pIC50"
value_reported = 5.96

[[record]]
chemical_string = "CC(C)Cc1cc(Oc2ccccc2)ccc1OCCCOc1ccc([C@@H]2SC(=O)NC2=O)cc1"
assay_endpoint = "pIC50"
value_reported = 6.47

[[record]]
chemical_string = "CCCC[C@@](Cc1ccc(OCCc2nc(-c3ccccc3)oc2C)cc1)(Oc1ccccc1)C(=O)O"
assay_endpoint = "pIC50"
value_reported = 5.73


###

- Assay System: Peroxisome proliferator-activated receptor delta (Homo sapiens)
- Format: functional
- Test Settings: read-out: IC50
Catalogue of log10(IC50) readings, one per entry.
Assay Endpoint: log10(IC50) (log10 of the value in µM)

[[record]]
chemical_string = "Cc1oc(-c2ccccc2)nc1CCOc1ccc(C[C@H](Oc2ccccc2)C(=O)O)cc1"
value_reported = 0.85

[[record]]
chemical_string = "O=C(O)[C@@H]1CCc2ccc(OCCCOc3ccc(OCC(F)(F)F)cc3Cl)cc2O1"
value_reported = 0.84

[[record]]
chemical_string = "CCCc1cc(Oc2ccc(O)cc2)ccc1OCCCOc1cccc([C@@H]2SC(=O)NC2=O)c1"
value_reported = 0.58

[[record]]
chemical_string = "CCCC[C@@](Cc1ccc(OCCc2nc(-c3ccccc3)oc2C)cc1)(Oc1ccccc1)C(=O)O"
value_reported = 0.86

[[record]]
chemical_string = "CC(C)Cc1cc(Oc2ccccc2)ccc1OCCCOc1ccc([C@@H]2SC(=O)NC2=O)cc1"
value_reported = -0.80


###

- Assay System: Peroxisome proliferator-activated receptor delta (Homo sapiens)
- Type: functional
- Test Settings: read-out: pIC50 (converted)
Assay Endpoint: log10 IC50 (log10 of the value in nM)

[[record]]
chemical_string = "CCCc1cc(C2CCCC2)ccc1OCCCOc1cccc([C@H]2OC(=O)NC2=O)c1"
assay_endpoint = "log10 IC50"
value_reported = 3.59

[[record]]
chemical_string = "O=C1NC(=O)[C@H](c2cccc(OCCCOc3ccc(Oc4ccccc4)cc3)c2)S1"
assay_endpoint = "log10 IC50"
value_reported = 2.28

[[record]]
chemical_string = "CCO[C@@H](Cc1cccc2c1ccn2Cc1nc(-c2ccccc2)oc1C)C(=O)O"
assay_endpoint = "log10 IC50"
value_reported = 3.54

[[record]]
chemical_string = "CC[C@@](Cc1ccc(OCCc2nc(-c3ccccc3)oc2C)cc1)(Oc1ccccc1)C(=O)O"
assay_endpoint = "log10 IC50"
value_reported = 3.71

[[record]]
chemical_string = "CCCc1cc(C(=O)c2ccccc2)ccc1OCCCOc1cccc([C@@H]2SC(=O)NC2=O)c1"
assay_endpoint = "log10 IC50"
value_reported = 2.23

[[record]]
chemical_string = "CCCc1c(OCCCSc2ccc(CC(=O)O)cc2Cl)ccc(/C(CC)=N\\O)c1O"
assay_endpoint = "log10 IC50"
value_reported = 1.00

[[record]]
chemical_string = "CCCc1cc(OC2CCCC2)ccc1OCCCOc1cccc([C@@H]2SC(=O)NC2=O)c1"
assay_endpoint = "log10 IC50"
value_reported = 2.96


###

Collected IC50 values appear next to each entry.
- Assay System: Peroxisome proliferator-activated receptor alpha (Homo sapiens, UniProt Q07869)
- Sequence (Q07869 whole entry): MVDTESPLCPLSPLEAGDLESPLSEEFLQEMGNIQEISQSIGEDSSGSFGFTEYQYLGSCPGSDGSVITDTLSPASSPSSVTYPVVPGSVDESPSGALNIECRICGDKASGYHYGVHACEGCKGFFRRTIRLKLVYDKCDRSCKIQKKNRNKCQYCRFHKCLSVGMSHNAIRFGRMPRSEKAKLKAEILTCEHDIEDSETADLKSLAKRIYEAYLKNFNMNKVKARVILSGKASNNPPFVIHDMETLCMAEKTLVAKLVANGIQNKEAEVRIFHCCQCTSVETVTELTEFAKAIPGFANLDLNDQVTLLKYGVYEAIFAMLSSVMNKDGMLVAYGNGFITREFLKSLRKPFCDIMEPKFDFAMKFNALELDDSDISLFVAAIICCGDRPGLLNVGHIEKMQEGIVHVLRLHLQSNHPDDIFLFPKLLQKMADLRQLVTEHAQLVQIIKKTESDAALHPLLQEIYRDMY
- Type: functional
- Test Settings: read-out: pIC50 (converted)
Assay Endpoint: IC50

[[record]]
chemical_string = "CCCO[C@H](Cc1ccc2c(ccn2Cc2nc(-c3ccc(C(F)(F)F)cc3)oc2C)c1)C(=O)O"
assay_system = "Peroxisome proliferator-activated receptor alpha (Homo sapiens, UniProt Q07869)"
value_reported = "0.04 µM"

[[record]]
chemical_string = "CCCn1c(CCCc2ccc(OC(C)(C)C(=O)O)cc2)nn([C@H](C)c2ccccc2)c1=O"
assay_system = "Peroxisome proliferator-activated receptor alpha (Homo sapiens, UniProt Q07869)"
value_reported = "0.22 µM"

[[record]]
chemical_string = "CCO[C@H](Cc1ccc2c(c1)cc(C)n2Cc1nc(-c2ccc(C(F)(F)F)cc2)oc1C)C(=O)O"
assay_system = "Peroxisome proliferator-activated receptor alpha (Homo sapiens, UniProt Q07869)"
value_reported = "0.352 µM"

[[record]]
chemical_string = "Cc1oc(-c2ccc(C(F)(F)F)cc2)nc1Cn1ccc2cc(C[C@@H](OC(C)C)C(=O)O)ccc21"
assay_system = "Peroxisome proliferator-activated receptor alpha (Homo sapiens, UniProt Q07869)"
value_reported = "0.061 µM"

[[record]]
chemical_string = "CC[C@@](Cc1ccc(OCCc2nc(-c3ccccc3)oc2C)cc1)(Oc1ccccc1)C(=O)O"
assay_system = "Peroxisome proliferator-activated receptor alpha (Homo sapiens, UniProt Q07869)"
value_reported = "0.473 µM"

[[record]]
chemical_string = "CCCc1c(OCCCSc2ccc(CC(=O)O)cc2Cl)ccc(/C(CC)=N\\O)c1O"
assay_system = "Peroxisome proliferator-activated receptor alpha (Homo sapiens, UniProt Q07869)"
value_reported = "0.1 µM"

[[record]]
chemical_string = "CCO[C@@H](Cc1cccc2c1ccn2Cc1nc(-c2ccccc2)oc1C)C(=O)O"
assay_system = "Peroxisome proliferator-activated receptor alpha (Homo sapiens, UniProt Q07869)"
value_reported = "0.125 µM"

